Tested on: Mus musculus
ASSAY_INFO: Neurotoxicity in albino CF1 mouse assessed as minimal motor impairment at 300 mg/kg, ip after 4 hrs by rotarod test
Type: toxicity, organism-based
Parameters: dose 300 mg/kg, route intraperitoneal
STATED_CONDITIONS: in vivo
READOUT: Activity

                           substance_smiles     result
0  FC(F)(F)c1cccc(-c2c[nH]c(-c3cccc(C(F)(F)F)c3)n2)c1  Non-toxic
1  FC(F)(F)c1cccc(-c2c[nH]c(-c3ccc(Cl)cc3)n2)c1  Non-toxic
2           c1ccc(-c2c[nH]c(-c3ccoc3)n2)cc1      Toxic
3        Clc1cccc(-c2c[nH]c(-c3ccccc3)n2)c1  Non-toxic
4           c1ccc(-c2c[nH]c(-c3ccco3)n2)cc1      Toxic
5        Clc1cccc(-c2nc(-c3ccccc3)c[nH]2)c1  Non-toxic

----------
Test system: Mus musculus
ASSAY_INFO: Neurotoxicity in albino CF1 mouse assessed as minimal motor impairment at 30 to 300 mg/kg, po after 4 hrs by rotarod test
Assay type: toxicity, organism-based
Design: dose 30-300 mg/kg, route oral
STATED_CONDITIONS: in vivo
READOUT: Activity

In [3]: df
Out[3]:
                           substance_smiles     result
0  FC(F)(F)c1cccc(-c2c[nH]c(-c3cccc(C(F)(F)F)c3)n2)c1  Non-toxic
1  FC(F)(F)c1ccc(-c2nc(-c3ccccc3)c[nH]2)cc1  Non-toxic
2  O=[N+]([O-])c1ccc(-c2c[nH]c(-c3ccccc3)n2)cc1  Non-toxic
3  FC(F)(F)c1ccc(-c2c[nH]c(-c3ccccc3)n2)cc1  Non-toxic
4           c1ccc(-c2c[nH]c(-c3ccoc3)n2)cc1  Non-toxic
5  O=[N+]([O-])c1ccc(-c2nc(-c3ccccc3)c[nH]2)cc1  Non-toxic
6  O=[N+]([O-])c1cccc(-c2nc(-c3ccccc3)c[nH]2)c1  Non-toxic
7  FC(F)(F)c1cccc(-c2nc(-c3ccccc3)c[nH]2)c1  Non-toxic
8  FC(F)(F)c1cccc(-c2c[nH]c(-c3ccc(Cl)cc3)n2)c1  Non-toxic

----------
System: Mus musculus
ASSAY_INFO: Anticonvulsant activity in albino CF1 mouse assessed as protection against subcutaneous metrazole-induced seizures at 300 mg/kg, ip after 0.5 hrs
Type: functional, organism-based
Set-up: dose 300 mg/kg
Active and inactive are the calls of the source. The calls are words filed in the database; no cut-off is given here.
READOUT: Activity

In [3]: df
Out[3]:
                            substance_smiles  study_target    result
 0          c1ccc(-c2c[nH]c(-c3ccccc3)n2)cc1  Mus musculus  inactive
 1        Clc1cccc(-c2c[nH]c(-c3ccccc3)n2)c1  Mus musculus  inactive
 2  O=[N+]([O-])c1ccc(-c2c[nH]c(-c3ccccc3)n2)cc1  Mus musculus  inactive
 3           c1ccc(-c2c[nH]c(-c3ccsc3)n2)cc1  Mus musculus  inactive
 4  FC(F)(F)c1ccc(-c2c[nH]c(-c3ccccc3)n2)cc1  Mus musculus  inactive
 5  O=[N+]([O-])c1ccc(-c2nc(-c3cccc(C(F)(F)F)c3)c[nH]2)cc1  Mus musculus  inactive
 6     c1ccc(-c2c[nH]c(-c3cc4ccccc4o3)n2)cc1  Mus musculus  inactive
 7        COc1ccc(-c2c[nH]c(-c3ccccc3)n2)cc1  Mus musculus    Active
 8           c1ccc(-c2c[nH]c(-c3ccco3)n2)cc1  Mus musculus  inactive
 9          c1ccc(-c2c[nH]c(-c3cccnc3)n2)cc1  Mus musculus    Active
10          c1ccc(-c2c[nH]c(-c3ccncc3)n2)cc1  Mus musculus  inactive
11        Clc1ccc(-c2c[nH]c(-c3ccccc3)n2)cc1  Mus musculus  inactive
